Recorded GI50, one value per entry.
- Tested on: IGROV-1
- assay protocol: NCI tumour cell line growth inhibition, 48 h
Active and inactive are the calls of the source. Cut-off read from the data, not from the text of the source: active = GI50 up to about 1.1 µM and inactive = higher.
outcome measure: GI50

INSERT INTO results (compound, data_value) VALUES
  ('COC(C(O)CO)C(O)C(O)C(=O)NNc1ccccc1 (centres undefined)', '47.4 µM (inactive)'),
  ('O=C(/C=C\c1cccc2ccccc12)c1ccc(F)cc1', '15.3 µM (inactive)'),
  ('CCOC(=O)C(C(=O)OCC)=C1N[C@H](C(=O)OCC)CS1', '> 100 µM (inactive)'),
  ('C=C=C[P+](c1ccccc1)(c1ccccc1)c1ccccc1', '31.5 µM (inactive)'),
  ('CCOC(=O)Cn1c(=O)n(C)c(=O)c2[nH]cnc21', '> 100 µM (inactive)'),
  ('COc1ccc(NC(=O)CC(=O)N2N=C(c3ccccc3)C(/N=N/c3ccc(S(=O)(=O)CCOS(=O)(=O)O)cc3)C2=O)cc1 (centres undefined)', '> 100 µM (inactive)'),
  ('O=C1/C(=N\NC(=S)Nc2ccc(Cl)cc2)c2cc([N+](=O)[O-])ccc2N1CN1CCOCC1', '4.19 µM (inactive)'),
  ('O=C1Oc2ccccc2C(=O)/C1=C/N1C(=O)CNC1=S', '> 100 µM (inactive)'),
  ('COc1ccc(/C=N/Nc2nnc3c(n2)c2ccccc2c2nn(-c4ccccc4Cl)nc23)cc1', '> 100 µM (inactive)'),
  ('CNC(=S)N/N=C(\C)c1ccc(OC)cc1O', '22.5 µM (inactive)'),
  ('CN(C)CCNC(=O)c1cccc2[nH]c(-c3ccccc3)nc12', '21.7 µM (inactive)'),
  ('OCC1OC(NO)C(O)C(O)C1O (centres undefined)', '> 100 µM (inactive)'),
  ('C/C=C(\NC(=O)C(CCCCN)NC(=O)C(C)NC(=O)C1CSC(C)C(NC(=O)C2CSCC(NC(=O)C(C)NC(=O)C(N)C(C)CC)C(=O)NC(CCCCN)C(=O)NC(Cc3ccccc3)C(=O)NC(CC(C)C)C(=O)N2)C(=O)N2CCCC2C(=O)NCC(=O)N1)C(=O)NCC(=O)NC1CSCC2NC(=O)C(Cc3ccc(O)cc3)NC(=O)C(CSC=CNC2=O)NC(=O)C(CC(N)=O)NC(=O)C(Cc2ccccc2)NC1=O (centres undefined)', '> 100 µM (inactive)'),
  ('CCCCCCCCC(O)c1ccc(/C=C\C(O)CCCC(=O)O)s1 (centres undefined)', '> 100 µM (inactive)');

----------
- System: SK-MEL-5
- assay protocol: NCI tumour cell line growth inhibition, 48 h
Activity calls are given as the source filed them. Rule as the data show it: active = GI50 up to about 1.1 µM and inactive = higher.
Recorded GI50, one value per entry.
outcome measure: GI50

INSERT INTO measurements (molecule, data_value) VALUES
  ('CC1C[C@@H]2C(=O)NC(=O)[C@@H]2c2c1c1ccccc1n2C (some centres undefined)', '> 100 µM (inactive)'),
  ('Clc1n[nH]c2ccccc12', '> 100 µM (inactive)'),
  ('Cc1cc([C@H](C#N)c2nc3ccccc3s2)nc(Cl)n1', '1.79 µM (inactive)'),
  ('COc1cc2c(cc1OC)C(=O)Cc1ccc(OC)c(OC)c1CN(C)CC2', '> 100 µM (inactive)'),
  ('CCc1cccc(C)c1N1C(=O)C(=O)C(c2nc3ccccc3o2)C(=O)C1=O', '> 100 µM (inactive)'),
  ('CCCCCCCCCC(=O)NCCc1c[nH]c2ccc(OC)cc12', '18.5 µM (inactive)'),
  ('CCCN/C(N)=N/C#N', '> 100 µM (inactive)'),
  ('O=C(NCCNCCO)N/N=C/c1ccc(Cl)cc1', '> 100 µM (inactive)'),
  ('O=C1Oc2ccccc2C(=O)/C1=C/N1C(=O)CNC1=S', '> 100 µM (inactive)');
